Test system: HSV-1 Strain F
EXPERIMENT_DESCRIPTION: Viral qPCR assay, HSV-1 in Vero cells
Type: cell-based, Herpes Simplex Virus type 1
CONDITION_DETAILS: ~72 hrs, read-out: HSV1 VERO Cell (EC50)
Entries are sorted into classes by EC50 as follows: lo (below 0.9 µM), mid (0.9 µM to below 2 µM), hi (2 µM or more)

Recorded results for 5 molecules are shown here.
[[record]]
molecule = "Cn1nc(C(=O)NCc2ccc(Cl)cc2)c2c1CC(C[C@@H]1CCC(=O)N1)C2 (single isomer, unassigned)"
assigned_category = "lo"

[[record]]
molecule = "CN1CC(n2nc(C(=O)NCc3ccc(Cl)cc3)c3c2CC(C[C@@H]2CCC(=O)N2)C3)C1 (some centres unmarked)"
assigned_category = "hi"

[[record]]
molecule = "Cn1nc(C(=O)NCc2ccc(Cl)cc2)c2c1C(CO)N(C[C@H]1CCC(=O)N1)C2 (some centres unmarked)"
assigned_category = "lo"

[[record]]
molecule = "O=C1CC[C@@H](CN2Cc3c(C(=O)NCc4ccc(Cl)cc4)nn(C(F)F)c3C2)N1"
assigned_category = "lo"

[[record]]
molecule = "Cn1nc(C(=O)NCc2ccc(Cl)cc2)c2c1CC(CC1CCC(=O)N1)C2 (single isomer, unassigned)"
assigned_category = "hi"


Input line: Class (by measured EC50) for Cn1nc(C(=O)NCc2ccc(Cl)cc2)c2c1CN(C[C@@H]1CC(F)C(=O)N1)C2 (some centres unmarked)
Output line: mid

Input line: Entry to check: O=C1CC[C@@H](CN2Cc3c(C(=O)NCc4ccc(Cl)cc4)nn(C4CCC(F)(F)C4)c3C2)N1 (single isomer, unassigned)
Output line: hi

Input line: Now this one: Cn1nc(C(=O)NCc2ccc(Cl)cc2)c2c1CC(O)(CC1CCC(=O)N1)C2 (single isomer, unassigned)
Output line: lo

Input line: How about CCC1c2c(c(C(=O)NCc3ccc(Cl)cc3)nn2C)CN1CC1CCC(=O)N1 (single isomer, unassigned) ?
Output line: mid

Input line: Field entry: C[C@@H]1c2c(C(=O)NCc3ccc(Cl)cc3)nn(C)c2CN1C[C@H]1CCC(=O)N1 [Compound 126]
Output line: mid

Input line: Same again, this time with CC(C1CC(F)C(=O)N1)N1Cc2c(C(=O)NCc3ccc(Cl)cc3)nn(C)c2C1 (centres unmarked)
Output line: mid
